Molecular target: T1, PCSK9-D374Y-BP15-His6 (human, UniProt Q8NBP7 31-692, biotin on the BP15 biotin receiving peptide)
T1 construct: also called PCSK9-Y; mutant PCSK9
Experiment: blocking ELISA, LDLR-FC (SEQ ID NO: 8) coated, bio-PCSK9-Y plus antibody
measured.property: IC50 (µg/mL)
Number only, in µg/mL; omit the unit.

binder	IC50 (µg/mL)
h001-7 (antibody, human IgG1, V domains shown, Variable regions only; also called h001_VH.1A + h001_VL.1B) VH: QVQLVQSGAEVKKPGASVKVSCKASGYTFNDYWMHWVRQAPGQGLEWMGYINPSSGFTKYHQNFKDRVTMTRDTSISTAYMELSRLRSDDTAVYYCARQYDYDEDWYFDVWGQGTTVTVSS VL: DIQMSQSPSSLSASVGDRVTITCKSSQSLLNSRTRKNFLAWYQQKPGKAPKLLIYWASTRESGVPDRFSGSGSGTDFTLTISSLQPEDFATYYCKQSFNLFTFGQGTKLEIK	0.515
h001-8 (antibody, human IgG1, V domains shown, Variable regions only; also called h001_VH.1A + h001_VL.1C) VH: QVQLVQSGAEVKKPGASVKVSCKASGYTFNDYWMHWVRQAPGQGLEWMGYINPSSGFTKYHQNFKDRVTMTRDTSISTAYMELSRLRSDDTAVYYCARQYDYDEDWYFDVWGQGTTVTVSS VL: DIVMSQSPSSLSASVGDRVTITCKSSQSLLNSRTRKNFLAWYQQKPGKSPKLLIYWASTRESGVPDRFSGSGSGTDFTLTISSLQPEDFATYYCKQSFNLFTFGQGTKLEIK	0.414

For the binder shown here, h001-10 (antibody, human IgG1, V domains shown, Variable regions only; also called h001_VH.1B + h001_VL.1A) VH: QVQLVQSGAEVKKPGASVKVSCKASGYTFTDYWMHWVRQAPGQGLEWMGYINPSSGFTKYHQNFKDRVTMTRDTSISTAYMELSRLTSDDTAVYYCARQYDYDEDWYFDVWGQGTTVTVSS VL: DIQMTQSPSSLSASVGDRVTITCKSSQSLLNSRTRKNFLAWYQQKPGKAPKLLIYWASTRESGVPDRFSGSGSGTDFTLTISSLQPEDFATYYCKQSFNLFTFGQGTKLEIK , give the reported IC50.
0.514

Given h001-1 (antibody, human IgG1, V domains shown, Variable regions only; also called h001_VH.1 + h001_VL.1) VH: QVQLVQSGAEVKKPGASVKVSCKASGYTFTDYWMHWVRQAPGQGLEWMGYINPSSGFTKYHQNFKDRVTMTRDTSISTAYMELSRLRSDDTAVYYCARQYDYDEDWYFDVWGQGTTVTVSS VL: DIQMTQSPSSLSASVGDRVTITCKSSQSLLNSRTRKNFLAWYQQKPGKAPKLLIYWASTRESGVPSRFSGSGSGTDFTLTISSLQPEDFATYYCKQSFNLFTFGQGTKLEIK , state its recorded IC50.
0.566

What does the record list as IC50 for h001-6 (antibody, human IgG1, V domains shown, Variable regions only; also called h001_VH.1A + h001_VL.1A) VH: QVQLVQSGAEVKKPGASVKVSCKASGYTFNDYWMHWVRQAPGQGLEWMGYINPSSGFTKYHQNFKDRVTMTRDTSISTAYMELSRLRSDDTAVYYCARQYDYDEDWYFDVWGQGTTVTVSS VL: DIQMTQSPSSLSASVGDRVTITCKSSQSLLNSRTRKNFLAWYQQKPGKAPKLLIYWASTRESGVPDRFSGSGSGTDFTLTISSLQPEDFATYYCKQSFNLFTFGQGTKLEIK ?
0.437
